Values from ChEMBL document CHEMBL3817795

- measurementDescription: Solubility of the compound
- Format: physicochemical

smilesStructure: O=C(Nc1cc(Nc2ccccc2Cl)ccn1)C1CC1
solubility, µM: 49
--
smilesStructure: O=C(Nc1cc(Nc2c(Cl)cnc3c2OCO3)ccn1)C1CC1
solubility, µM: 63
--
smilesStructure: O=C(Nc1cc(Nc2c(Cl)ccc3c2OCO3)ccn1)C1CC1
solubility, µM: 46

---

- systemName: TGF-beta receptor type-1 (Homo sapiens)
- Sequence (P36897 whole entry): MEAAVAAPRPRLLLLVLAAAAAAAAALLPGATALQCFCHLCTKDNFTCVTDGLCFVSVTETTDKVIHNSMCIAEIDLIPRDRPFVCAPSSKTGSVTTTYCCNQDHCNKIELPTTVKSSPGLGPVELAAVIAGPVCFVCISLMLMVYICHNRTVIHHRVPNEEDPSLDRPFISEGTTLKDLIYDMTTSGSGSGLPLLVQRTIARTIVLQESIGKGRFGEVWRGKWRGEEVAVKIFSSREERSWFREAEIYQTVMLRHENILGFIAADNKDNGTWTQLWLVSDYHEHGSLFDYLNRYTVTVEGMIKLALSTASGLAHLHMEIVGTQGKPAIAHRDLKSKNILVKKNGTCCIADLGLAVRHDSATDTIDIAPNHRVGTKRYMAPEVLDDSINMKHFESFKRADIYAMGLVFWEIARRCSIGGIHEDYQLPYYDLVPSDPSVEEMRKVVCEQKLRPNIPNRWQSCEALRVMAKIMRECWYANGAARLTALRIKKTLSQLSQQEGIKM
pIC50: −log10 of the molar value.

smilesStructure: O=C(Nc1cc(Nc2c(Cl)cnc3c2OCO3)ccn1)C1CC1
systemName: TGF-beta receptor type-1 (Homo sapiens)
pIC50: 8.72

---

- systemName: Activin receptor type-1-like (Homo sapiens)
- Sequence (P37023 whole entry): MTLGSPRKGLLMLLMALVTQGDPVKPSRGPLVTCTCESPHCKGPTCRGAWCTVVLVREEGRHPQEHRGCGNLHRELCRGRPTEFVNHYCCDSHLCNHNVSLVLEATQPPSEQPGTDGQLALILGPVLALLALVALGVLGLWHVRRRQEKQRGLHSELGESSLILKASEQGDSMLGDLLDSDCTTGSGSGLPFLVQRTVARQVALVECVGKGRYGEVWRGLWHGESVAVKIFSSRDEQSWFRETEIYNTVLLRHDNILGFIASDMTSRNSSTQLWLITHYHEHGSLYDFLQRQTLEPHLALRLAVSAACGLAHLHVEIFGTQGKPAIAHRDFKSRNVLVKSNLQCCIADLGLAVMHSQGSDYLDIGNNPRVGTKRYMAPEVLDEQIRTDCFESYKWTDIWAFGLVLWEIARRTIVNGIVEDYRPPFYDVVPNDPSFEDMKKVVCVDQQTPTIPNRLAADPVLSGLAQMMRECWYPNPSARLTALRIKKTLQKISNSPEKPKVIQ
- measurementDescription: Inhibition of human recombinant GST-tagged ALK1 expressed in baculovirus by FRET assay
pIC50: −log10 of the molar value.
measuredEndpoint: pIC50

smilesStructure: O=C(Nc1cc(Nc2c(Cl)cnc3c2OCO3)ccn1)C1CC1
measuredEndpoint: pIC50
resultNumber: 8.96
